These entries and their values trace back to patent US20230233650A1.

# System Tested: T1, Human CRF1 receptor (Corticotropin-Releasing Factor receptor 1) (human, UniProt P34998 24-415)
# T1 construct: whole, on cells; also called type 1 CRF receptor
# T1 sequence (looked up): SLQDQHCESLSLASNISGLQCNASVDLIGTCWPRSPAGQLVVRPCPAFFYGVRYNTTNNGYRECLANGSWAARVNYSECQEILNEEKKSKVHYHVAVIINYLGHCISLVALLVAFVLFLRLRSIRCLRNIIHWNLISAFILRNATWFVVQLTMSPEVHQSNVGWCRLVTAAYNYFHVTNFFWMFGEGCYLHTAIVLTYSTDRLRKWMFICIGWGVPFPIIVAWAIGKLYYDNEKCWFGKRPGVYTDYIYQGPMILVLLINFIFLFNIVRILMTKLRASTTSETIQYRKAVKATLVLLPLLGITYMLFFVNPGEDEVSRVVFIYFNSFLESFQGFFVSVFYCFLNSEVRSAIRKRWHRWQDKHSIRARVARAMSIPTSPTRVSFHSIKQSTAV
# Protocol Text: SPA, displacement of [125I]-Sauvagine from membranes of CHO-K1 cells expressing the CRF1 receptor
Ends that are not written are not given here.
Readout Kind: pIC50
FYI, pIC50 means -log10 of a concentration in mol per litre.

Find the recorded pIC50 belonging to DNPSLSIDLTFHLLRTLLELARTQSQRERAEQNRIIFDSV-NH2 (also called human Ucn1) [Compound 1 - hUcn1 (human Urocortin 1 peptide)] and report it.
10.15
